Source of measurements: paper PMC7408396

test_method_notes: Bidirectional transport across IPEC-J2 wild-type (WT) cell monolayers
Format: in vitro ADME, porcine
experimental_context: pig, pH 7.4, mean ± SEM, read-out: PB-A (apparent permeability, basolateral to apical)

line_notation	Papp B→A at 120 min
C[C@H]1O[C@@H](O[C@H]2[C@@H](O)C[C@H](O[C@H]3[C@@H](O)C[C@H](O[C@H]4CC[C@@]5(C)[C@H](CC[C@@H]6[C@@H]5C[C@@H](O)[C@]5(C)[C@@H](C7=CC(=O)OC7)CC[C@]65O)C4)O[C@@H]3C)O[C@@H]2C)C[C@H](O)[C@@H]1O	0.13 ×10⁻⁶ cm/s

---

tested_on: P-gp (human MDR1) (Homo sapiens)
Construct: expressed in transfected cells; host or cells: IPEC-J2 (porcine intestinal epithelial cells), previously established IPEC-J2 MDR1 line
Sequence (P08183 whole entry): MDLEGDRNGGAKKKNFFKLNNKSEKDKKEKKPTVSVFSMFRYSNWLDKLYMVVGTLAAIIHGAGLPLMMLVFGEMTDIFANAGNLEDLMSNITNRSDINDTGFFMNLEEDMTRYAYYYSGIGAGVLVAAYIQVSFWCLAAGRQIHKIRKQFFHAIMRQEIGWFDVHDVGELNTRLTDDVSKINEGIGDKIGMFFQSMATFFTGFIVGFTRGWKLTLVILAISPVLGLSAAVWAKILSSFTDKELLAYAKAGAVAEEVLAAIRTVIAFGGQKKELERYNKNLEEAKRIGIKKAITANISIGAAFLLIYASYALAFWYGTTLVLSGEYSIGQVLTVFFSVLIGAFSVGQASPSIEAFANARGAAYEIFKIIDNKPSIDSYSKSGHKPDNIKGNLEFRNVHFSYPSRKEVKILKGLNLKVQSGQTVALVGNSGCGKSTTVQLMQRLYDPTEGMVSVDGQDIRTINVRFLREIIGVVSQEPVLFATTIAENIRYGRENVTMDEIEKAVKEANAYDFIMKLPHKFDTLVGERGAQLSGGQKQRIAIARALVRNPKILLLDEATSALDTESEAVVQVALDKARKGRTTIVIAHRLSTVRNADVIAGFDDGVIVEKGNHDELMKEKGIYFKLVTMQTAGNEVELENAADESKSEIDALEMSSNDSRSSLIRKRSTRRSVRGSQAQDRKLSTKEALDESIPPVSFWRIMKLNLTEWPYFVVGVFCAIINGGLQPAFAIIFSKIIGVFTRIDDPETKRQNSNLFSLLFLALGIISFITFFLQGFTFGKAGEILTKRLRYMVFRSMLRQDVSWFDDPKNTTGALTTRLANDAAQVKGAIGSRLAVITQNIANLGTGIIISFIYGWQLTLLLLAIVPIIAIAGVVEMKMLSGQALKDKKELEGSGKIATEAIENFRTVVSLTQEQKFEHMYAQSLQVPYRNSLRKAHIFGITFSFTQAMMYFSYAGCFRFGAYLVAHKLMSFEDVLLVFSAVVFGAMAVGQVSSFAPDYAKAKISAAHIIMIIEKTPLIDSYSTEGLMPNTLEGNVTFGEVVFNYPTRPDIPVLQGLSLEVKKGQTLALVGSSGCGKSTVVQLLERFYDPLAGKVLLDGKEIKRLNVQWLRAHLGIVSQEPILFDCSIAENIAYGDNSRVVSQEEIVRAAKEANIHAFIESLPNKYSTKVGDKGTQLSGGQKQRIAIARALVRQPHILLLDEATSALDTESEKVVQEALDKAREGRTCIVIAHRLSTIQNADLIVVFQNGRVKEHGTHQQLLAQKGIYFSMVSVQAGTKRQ
test_method_notes: Bidirectional transport across IPEC-J2 MDR1 cell monolayers
Assay type: in vitro ADME
experimental_context: pH 7.4, Figure 5, mean ± SEM, read-out: apparent permeability A–B
Description: The cell monolayers were washed and pre-incubated in transport buffer consisting of 10 mM HEPES, 0.05% BSA and 0.038% sodium bicarbonate in HBSS pH 7.4 for 15 min at 37 °C on a shaking table (Unimax 2010, Heidolph, Schwabach, Germany) with a rotation of 75–90 rpm. […]
Recorded Papp A→B at 120 min for the following compounds

line_notation	Papp A→B at 120 min (×10⁻⁶ cm/s)
CC[C@]1(O)C[C@@H]2CN(CCc3c([nH]c4ccccc34)[C@@](C(=O)OC)(c3cc4c(cc3OC)N(C)[C@H]3[C@@](O)(C(=O)OC)[C@H](OC(C)=O)[C@]5(CC)C=CCN6CC[C@]43[C@@H]65)C2)C1	1.5
C[C@H]1O[C@@H](O[C@H]2[C@@H](O)C[C@H](O[C@H]3[C@@H](O)C[C@H](O[C@H]4CC[C@@]5(C)[C@H](CC[C@@H]6[C@@H]5C[C@@H](O)[C@]5(C)[C@@H](C7=CC(=O)OC7)CC[C@]65O)C4)O[C@@H]3C)O[C@@H]2C)C[C@H](O)[C@@H]1O	0.28
Cc1cc2c(s1)Nc1ccccc1N=C2N1CCN(C)CC1	23
OC[C@@H](O)[C@@H](O)[C@H](O)[C@H](O)CO	0.25

---

Tested on: P-gp (rat Mdr1a)
test_method_notes: in vitro
experimental_context: pH 7.4, apparent permeability A–B, IPEC-J2 rMdr1a monolayers, Figure 5, mean ± SEM
Recorded Papp A→B at 120 min for the following compounds

line_notation	endpoint_unit	Papp A→B at 120 min
OC[C@@H](O)[C@@H](O)[C@H](O)[C@H](O)CO	×10⁻⁶ cm/s	0.33
C[C@H]1O[C@@H](O[C@H]2[C@@H](O)C[C@H](O[C@H]3[C@@H](O)C[C@H](O[C@H]4CC[C@@]5(C)[C@H](CC[C@@H]6[C@@H]5C[C@@H](O)[C@]5(C)[C@@H](C7=CC(=O)OC7)CC[C@]65O)C4)O[C@@H]3C)O[C@@H]2C)C[C@H](O)[C@@H]1O	×10⁻⁶ cm/s	0.35
CC[C@]1(O)C[C@@H]2CN(CCc3c([nH]c4ccccc34)[C@@](C(=O)OC)(c3cc4c(cc3OC)N(C)[C@H]3[C@@](O)(C(=O)OC)[C@H](OC(C)=O)[C@]5(CC)C=CCN6CC[C@]43[C@@H]65)C2)C1	×10⁻⁶ cm/s	1.6
